- Test system: GM-CSF/pSTAT5
- assayText: Cytokine function assay GM-CSF/pSTAT5 in lysed whole blood cells
- Assay type: cell-based
- measurementSetup: Whole blood cell, read-out: IC50 GM-CSF
IC50 values for the compounds below.
quantityKind: IC50

{"columns": ["compound", "quantityKind", "recordedResult"],
 "data": [
  ["Cc1cnc(Nc2cc(C)c3c(c2)COB3O)nc1N[C@@H]1CCC[C@H]1C#N (relative stereo) [Example 002]", "IC50", "2100 nM"],
  ["Cc1cnc(Nc2cc3c(c(C(F)(F)F)c2)B(O)OC3)nc1N[C@@H]1COCC[C@H]1C#N (single isomer, unassigned) [Example 033a]", "IC50", "1700 nM"],
  ["Cc1cnc(Nc2cc(Cl)c3c(c2)COB3O)nc1N[C@H]1CCCOC1 [Example 030b]", "IC50", "4480 nM"],
  ["Cc1cnc(Nc2ccc3c(c2)COB3O)nc1N[C@@H]1COCC[C@H]1C#N (single isomer, unassigned) [Example 026a]", "IC50", "4240 nM"],
  ["Cc1cnc(Nc2cc(C)c3c(c2)COB3O)nc1N[C@@H]1COCC[C@H]1C#N (relative stereo) [Example 027]", "IC50", "1200 nM"],
  ["N#C[C@H]1CCOC[C@@H]1Nc1nc(Nc2cc3c(c(C(F)(F)F)c2)B(O)OC3)ncc1Cl (single isomer, unassigned) [Example 042a]", "IC50", "2970 nM"],
  ["Cc1cnc(Nc2ccc3c(c2)COB3O)nc1N[C@@H]1CCCC[C@H]1C#N (relative stereo) [Example 008]", "IC50", "774 nM"],
  ["Cc1cnc(Nc2cc(F)c3c(c2)COB3O)nc1NC1COCCC1C#N (racemic) [Example 029]", "IC50", "2240 nM"]
]}

* * *

- testTarget: JAK2 (Homo sapiens (Human), UniProt O60674)
- Sequence (O60674 whole entry, species assumed): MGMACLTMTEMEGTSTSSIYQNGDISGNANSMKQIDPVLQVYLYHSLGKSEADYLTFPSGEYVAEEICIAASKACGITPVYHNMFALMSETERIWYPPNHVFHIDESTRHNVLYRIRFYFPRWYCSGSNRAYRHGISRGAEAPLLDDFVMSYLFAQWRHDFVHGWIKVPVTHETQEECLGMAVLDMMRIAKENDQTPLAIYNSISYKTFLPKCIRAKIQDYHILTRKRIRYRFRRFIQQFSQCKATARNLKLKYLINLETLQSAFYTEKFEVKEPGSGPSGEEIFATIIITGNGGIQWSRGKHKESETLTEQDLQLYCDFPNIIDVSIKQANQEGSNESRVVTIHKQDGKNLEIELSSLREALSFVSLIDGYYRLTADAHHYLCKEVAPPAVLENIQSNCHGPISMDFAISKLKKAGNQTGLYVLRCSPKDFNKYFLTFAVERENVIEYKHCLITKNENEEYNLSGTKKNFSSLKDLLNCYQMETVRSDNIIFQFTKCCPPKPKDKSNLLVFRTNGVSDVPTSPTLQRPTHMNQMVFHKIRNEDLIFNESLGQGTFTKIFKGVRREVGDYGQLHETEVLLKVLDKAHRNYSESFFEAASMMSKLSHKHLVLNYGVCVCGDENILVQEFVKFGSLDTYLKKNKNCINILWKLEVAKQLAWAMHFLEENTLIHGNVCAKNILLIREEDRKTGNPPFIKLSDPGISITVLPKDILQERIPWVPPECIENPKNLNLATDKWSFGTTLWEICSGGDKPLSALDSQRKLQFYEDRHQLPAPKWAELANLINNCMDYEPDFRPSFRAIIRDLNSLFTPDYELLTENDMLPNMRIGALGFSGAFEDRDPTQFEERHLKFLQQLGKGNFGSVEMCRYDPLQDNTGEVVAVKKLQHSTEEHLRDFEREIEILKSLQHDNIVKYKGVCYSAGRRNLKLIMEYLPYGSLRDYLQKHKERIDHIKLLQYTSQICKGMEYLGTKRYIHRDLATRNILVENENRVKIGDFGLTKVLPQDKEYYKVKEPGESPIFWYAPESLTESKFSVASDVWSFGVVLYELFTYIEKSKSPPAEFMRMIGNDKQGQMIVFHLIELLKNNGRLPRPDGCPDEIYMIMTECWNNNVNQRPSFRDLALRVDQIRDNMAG
- assayText: Biochemical kinase assay (33P-ATP filter-binding), JAK2
- measurementSetup: Table 3b, comparator compounds; read-out: IC50 JAK2
IC50 values for the compounds below.

{"columns": ["compoundStructure", "quantityUnit", "IC50"],
 "data": [
  ["CCC(CC)Nc1nc(Nc2ccc3c(c2)COB3O)ncc1Cl", "µM", 0.0333],
  ["CCC(CC)Nc1nc(Nc2cc(Cl)c3c(c2)COB3O)ncc1C", "µM", 0.0957],
  ["CCC(CC)Nc1nc(Nc2cc(F)c3c(c2)COB3O)ncc1C", "µM", 0.0437],
  ["Cc1cnc(Nc2ccc3c(c2)C(C)(C)OB3O)nc1NC1CCCC1", "µM", 0.0839],
  ["OB1OCc2cc(Nc3ncc(C(F)(F)F)c(NC4CCCC4)n3)ccc21", "µM", 0.171],
  ["OB1OCc2cc(Nc3ncc(F)c(NC4CCCCC4)n3)ccc21", "µM", 1.85],
  ["Cc1cnc(Nc2ccc3c(c2)COB3O)nc1NC1CCCC1", "µM", 0.154],
  ["OB1OCc2cc(Nc3ncc(C(F)(F)F)c(NC4CCCCC4)n3)ccc21", "µM", 0.397],
  ["CCC(CC)Nc1nc(Nc2ccc3c(c2)COB3O)ncc1C", "µM", 0.0602],
  ["CCC(CC)Nc1nc(Nc2cc(C)c3c(c2)COB3O)ncc1C", "µM", 0.041],
  ["OB1OCc2cc(Nc3ncc(Cl)c(NC4CCCCC4)n3)ccc21", "µM", 0.118],
  ["OB1OCc2cc(Nc3ncc(F)c(NC4CCCC4)n3)ccc21", "µM", 0.705],
  ["Cc1cnc(Nc2cc(Cl)c3c(c2)COB3O)nc1NC1CCCC1", "µM", 0.0318],
  ["OB1OCc2cc(Nc3ncc(Cl)c(NC4CCCC4)n3)cc(F)c21", "µM", 0.0265],
  ["OB1OCc2cc(Nc3ncc(Cl)c(NC4CCCC4)n3)ccc21", "µM", 0.179],
  ["Cc1cnc(Nc2cc(Cl)c3c(c2)COB3O)nc1NC1CCCCC1", "µM", 0.0065],
  ["OB1OCc2cc(Nc3nccc(NC4CCCCC4)n3)ccc21", "µM", 0.364],
  ["Cc1cc(Nc2ncc(Cl)c(NC3CCCC3)n2)cc2c1B(O)OC2", "µM", 0.663],
  ["Cc1cnc(Nc2cc(C)c3c(c2)COB3O)nc1NC1CCCC1", "µM", 0.0593],
  ["Cc1cnc(Nc2ccc3c(c2)COB3O)nc1NC1CCCCC1", "µM", 0.0329]
]}
